# target-under-test: Induced myeloid leukemia cell differentiation protein Mcl-1 (Homo sapiens) (UniProt Q07820)
# Sequence (Q07820 whole entry, looked up): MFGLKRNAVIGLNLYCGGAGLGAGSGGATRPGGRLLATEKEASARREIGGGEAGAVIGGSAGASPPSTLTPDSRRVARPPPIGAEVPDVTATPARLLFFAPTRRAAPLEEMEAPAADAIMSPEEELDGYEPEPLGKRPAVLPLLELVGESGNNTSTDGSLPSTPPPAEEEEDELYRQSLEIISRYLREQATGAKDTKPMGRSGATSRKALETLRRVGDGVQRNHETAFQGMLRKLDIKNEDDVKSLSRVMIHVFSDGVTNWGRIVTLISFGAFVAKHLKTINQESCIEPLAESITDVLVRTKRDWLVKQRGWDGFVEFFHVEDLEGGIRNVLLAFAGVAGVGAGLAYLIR
# assay-info: Mcl-1/Noxa binding inhibitor potency, dose response, biochemical, TR-FRET (AID 1417)
# condition: Mcl-1/Noxa peptide interaction, cell-free TR-FRET (terbium/rhodamine), 2 h; measured here: absolute IC50
property-label: IC50 (µM)
I only need the number, in µM, no unit after it.

**Q:** Requested field: IC50. Item: COc1ccccc1NC(=O)C(=O)N/N=C/c1ccc([N+](=O)[O-])s1
**A:** 6.17

**Q:** Can you check COc1cc(C(=O)Nc2ccc3c(c2)C(=O)c2ccccc2C3=O)cc(OC)c1OC next?
**A:** 3.97

**Q:** Now this one: COc1cc(/C=N/NC(=O)c2ccc(CN3C(=O)c4cccc5cccc3c45)cc2)cc(OC)c1O
**A:** 3.43

**Q:** Another compound to look at: COc1ccc(NC(=O)Cn2ncc(Cl)c(Cl)c2=O)cc1S(=O)(=O)N1CCOCC1
**A:** 4.88

**Q:** Another compound to look at: CCOC(=O)c1[nH]c2c(c1C)C(=O)CC(c1ccco1)C2 (stereo not given)
**A:** 5.64

**Q:** Here is the next compound: COc1ccc(C(=O)Nc2ccc(N3CCCC3)cc2)cc1
**A:** 2.65

###

# target-under-test: Induced myeloid leukemia cell differentiation protein Mcl-1 (Homo sapiens)
# assay-info: Mcl-1/Noxa binding inhibitor potency, dose response, biochemical, TR-FRET (AID 1417)
# condition: Mcl-1/Noxa peptide interaction, cell-free TR-FRET (terbium/rhodamine), 2 h; measured here: absolute IC50
Please provide measured IC50 for the entries that follow.
Give the value, in units of µM, as a plain number.

**Q:** Can you share its IC50? I mean this molecule: Cc1nc(NC(=O)c2ccccc2)sc1-c1csc(Nc2ccc(C(=O)O)cc2)n1
**A:** 3.6

**Q:** Field entry: O=C(O)CCCCCN1C(=O)/C(=C\c2ccc(-c3ccc(Cl)cc3)o2)SC1=S
**A:** 1.36

**Q:** Also check O=[N+]([O-])c1ccc(O)c(/C=N/Nc2ccc(Cl)nn2)c1
**A:** 16.7

**Q:** Same question, O=C(c1ccc2nc(-c3ccco3)c(-c3ccco3)nc2c1)N1CCN(c2ncccn2)CC1 this time
**A:** 12.6

**Q:** Quick one: Cc1ccc(CNC(=O)c2ccc3c(=O)[nH]c4c(C(=O)NCC5CCCO5)sc(=S)n4c3c2)cc1 (stereo not given)
**A:** 11.1

**Q:** Next up: CC(=O)c1sc2nc(CSc3nnnn3-c3ccccc3)[nH]c(=O)c2c1C
**A:** 0.93

**Q:** Try the molecule CNCc1ccccc1Sc1cc(O)ccc1O
**A:** 4.17

**Q:** Also check O=C(Cn1nc(C(=O)O)c2ccccc2c1=O)Nc1ccc2c(c1)C(=O)c1ccccc1C2=O
**A:** 4.62

###

# target-under-test: Induced myeloid leukemia cell differentiation protein Mcl-1 (Homo sapiens)
# assay-info: Mcl-1/Noxa binding inhibitor potency, dose response, biochemical, TR-FRET (AID 1417)
# condition: Mcl-1/Noxa peptide interaction, cell-free TR-FRET (terbium/rhodamine), 2 h; measured here: absolute IC50
Provide the recorded IC50 for the entries that follow.
Please give a number only; it is taken to be in µM.

**Q:** Recorded IC50 for CCOC(=O)c1c(NC(=O)N/N=C/c2ccc(O)c(OC)c2)sc(C(C)=O)c1C with Induced myeloid leukemia cell differentiation protein Mcl-1 (Homo sapiens), please?
**A:** 1.59

**Q:** Continue with O=C1NC(=S)N/C1=C/c1ccc(-c2c(Br)cc([N+](=O)[O-])cc2Br)o1
**A:** 1.45

**Q:** Could you do the same for CCOC(=O)c1sc(NC(=O)Nc2ccc(Cl)cc2)cc1C , please?
**A:** 4.11

**Q:** Now consider O=C(NN1C(=O)/C(=C/C=C/c2ccco2)SC1=S)c1ccccc1O .
**A:** 1.01

###

Please respond with reported IC50 for every item in the list.
# target-under-test: Induced myeloid leukemia cell differentiation protein Mcl-1 (Homo sapiens) (UniProt Q07820)
# assay-info: Mcl-1/Noxa binding inhibitor potency, dose response, biochemical, TR-FRET (AID 1417)
# condition: Mcl-1/Noxa peptide interaction, cell-free TR-FRET (terbium/rhodamine), 2 h; measured here: absolute IC50

**Q:** Can you share its IC50? I mean this compound: O=C(CN1CCN(c2ccc(O)cc2)CC1)Nc1cc([N+](=O)[O-])ccc1Cl
**A:** 6.48 µM

**Q:** Quick one: O=C(Nc1ccc(N2CCCC2)cc1)c1ccc(Br)o1
**A:** 1.06 µM

**Q:** Continue with COc1cnn(-c2ccccc2)c(=O)c1SCc1ccc(Cl)cc1Cl
**A:** > 54 µM

**Q:** Same thing, different compound: O=C(/C=C1\NC2(CCCC2)Cc2ccccc21)C(=O)N/N=C/c1ccc(O)c(O)c1
**A:** 3.47 µM

**Q:** Next compound up: O=C(NCCc1ccccc1)c1ccc2nc(-c3ccco3)c(-c3ccco3)nc2c1
**A:** 2 µM

**Q:** Follow-up entry: S=C(NNc1ccnc2cc(Cl)ccc12)Nc1ccc(Cl)cc1Cl
**A:** 6.37 µM

**Q:** Lookup COc1ccc(C(=O)N2c3ccccc3CC2C)cc1OC (stereo unspecified)
**A:** > 54 µM

**Q:** Now the same for CC(/C=C1\SC(=S)N(NS(=O)(=O)c2ccccc2)C1=O)=C\c1ccccc1
**A:** 17.9 µM

**Q:** Also O=c1cc(-c2ccc([N+](=O)[O-])cc2)nc2cc(-c3ccc(Cl)cc3)[nH]n12 , if possible.
**A:** 1.63 µM

**Q:** Next entry: O=C1NC(=S)S/C1=C\C=C\c1ccc([N+](=O)[O-])o1
**A:** < 0.4 µM

**Q:** Same for CCN(/N=C/c1ccc(N(C)C)cc1)c1nc2ccccc2[nH]1
**A:** 2.06 µM

###

# target-under-test: Induced myeloid leukemia cell differentiation protein Mcl-1 (Homo sapiens) (UniProt Q07820)
# assay-info: Mcl-1/Noxa binding inhibitor potency, dose response, biochemical, TR-FRET (AID 1417)
# condition: Mcl-1/Noxa peptide interaction, cell-free TR-FRET (terbium/rhodamine), 2 h; measured here: absolute IC50
For each record, write down the corresponding pIC50.
By convention, pIC50 is the negative base-10 log of a molar concentration.

**Q:** Form field: reported pIC50 of CCOC(=O)c1c(NC(C)=O)sc2c(O)c(Br)cc(Br)c12
**A:** 5.07

**Q:** Ok, now CN1CCN(c2ccc([N+](=O)[O-])cc2/C=N/NC(=O)c2cccc([N+](=O)[O-])c2)CC1
**A:** 5.85

**Q:** Next entry: O=C(ONc1ccc(N=NC(=O)c2ccccc2O)cc1)c1ccccc1
**A:** 4.89

**Q:** Here is the next molecule: Cc1cc(C(F)F)n2nc(C(=O)Nc3sc4c(c3C(N)=O)CCC4)nc2n1
**A:** 4.94

**Q:** Next molecule up: Cc1ccc(NC(=O)CN2C(=O)S/C(=C/c3ccc(-c4cc(C(=O)O)ccc4C)o3)C2=O)cc1C
**A:** 5.54

**Q:** Record: CCOC(=O)C1CCCN(c2ccc(NC(=O)c3snc4c(=O)[nH]c(C)nc34)cc2)C1 (stereo unspecified)
**A:** 5.18

**Q:** Consider next the molecule Cc1ccc(/C=c2\sc3nc(-c4ccccc4Br)nn3c2=O)o1 in the same way.
**A:** 5.36

**Q:** // repeat for Cc1ccc(Cn2c(=N)c(C(=O)NCc3ccco3)cc3c(=O)n4ccccc4nc32)cc1 and report
**A:** 5.44

**Q:** COc1ccc(CCNC(=O)c2ccc3nc(-c4ccco4)c(-c4ccco4)nc3c2)cc1OC ?
**A:** 5.35

**Q:** Try O=[N+]([O-])c1cc(/C=N/Nc2nc3ccccc3[nH]2)c(O)cc1O next.
**A:** 4.88

**Q:** Lookup Cn1c(N)c(C(=O)COC(=O)c2cc(-c3ccco3)nc3ccccc23)c(=O)n(C)c1=O
**A:** 5.47

**Q:** Same thing, different molecule: O=C(O)c1ccccc1-c1ccc(/C=c2\sc3nc4cc(Br)cnc4n3c2=O)o1
**A:** 5.51

**Q:** For COc1ccc(/C=C2/SC(=O)N(CCC(=O)Nc3ccc(S(=O)(=O)Nc4nccs4)cc3)C2=O)cc1 then?
**A:** 5.42

**Q:** Can you handle COCCN=c1scc(-c2cccs2)n1/N=C/c1ccc(O)c(O)c1O next?
**A:** 5.36

**Q:** Next record, please: O=C(Nc1ccccc1)c1ccc2nc(-c3ccco3)c(-c3ccco3)nc2c1
**A:** 5.42

**Q:** Now this one: Cc1ccc(C(C)C)c(OCc2ccc(C(=O)N/N=C/c3ccc(O)cc3O)cc2)c1
**A:** 4.88

**Q:** Param item: Cc1cc2nc(/C=C/c3nc4cc(C)c(C)cc4[nH]3)[nH]c2cc1C
**A:** 5.34

**Q:** Please do the same for COc1cc(/C=C2\SC(=O)N(Cc3ccc(Cl)cc3)C2=O)cc([N+](=O)[O-])c1O as well.
**A:** 5.15

**Q:** Also check COc1ccc(-c2nn(CCC(=O)O)cc2/C=C2\SC(N)=NC2=O)cc1OC
**A:** 5.36

**Q:** Also O=c1cc(-c2ccccc2Cl)oc2c(NS(=O)(=O)c3cc(Cl)cc(Cl)c3O)ccc(O)c12 ?
**A:** 5.62

**Q:** And the next one, Cc1csc(NC(=O)c2cc(-c3ccco3)nc3ccccc23)n1 ?
**A:** 5.54

**Q:** Also O=C1NC(=O)N(Cc2ccco2)C(=O)/C1=C/c1ccc(-c2cccc([N+](=O)[O-])c2)o1 , if possible.
**A:** 5.48

**Q:** Okay, and O=C(O)c1cc(-c2ccc(/C=C3/SC(=S)N(Cc4ccccc4)C3=O)o2)ccc1Cl ?
**A:** 5.82

**Q:** Request: O=[N+]([O-])c1ccc(/C=N/NC(=S)Nc2ccc(Cl)cc2Cl)s1
**A:** 5.87

**Q:** Moving on to O=C(O)c1ccc(-n2cccc2/C=N\NC(=O)c2cc3cc(Br)ccc3o2)cc1
**A:** 6.04

**Q:** Then this molecule: CS(=O)(=O)C1=NSC2=NC(=O)/C(=C\c3cccn3-c3ccccc3Cl)C(=N)N21
**A:** 5.25
